# Target desc: Vascular endothelial growth factor receptor 2 (Homo sapiens)
# Sequence (P35968 whole entry): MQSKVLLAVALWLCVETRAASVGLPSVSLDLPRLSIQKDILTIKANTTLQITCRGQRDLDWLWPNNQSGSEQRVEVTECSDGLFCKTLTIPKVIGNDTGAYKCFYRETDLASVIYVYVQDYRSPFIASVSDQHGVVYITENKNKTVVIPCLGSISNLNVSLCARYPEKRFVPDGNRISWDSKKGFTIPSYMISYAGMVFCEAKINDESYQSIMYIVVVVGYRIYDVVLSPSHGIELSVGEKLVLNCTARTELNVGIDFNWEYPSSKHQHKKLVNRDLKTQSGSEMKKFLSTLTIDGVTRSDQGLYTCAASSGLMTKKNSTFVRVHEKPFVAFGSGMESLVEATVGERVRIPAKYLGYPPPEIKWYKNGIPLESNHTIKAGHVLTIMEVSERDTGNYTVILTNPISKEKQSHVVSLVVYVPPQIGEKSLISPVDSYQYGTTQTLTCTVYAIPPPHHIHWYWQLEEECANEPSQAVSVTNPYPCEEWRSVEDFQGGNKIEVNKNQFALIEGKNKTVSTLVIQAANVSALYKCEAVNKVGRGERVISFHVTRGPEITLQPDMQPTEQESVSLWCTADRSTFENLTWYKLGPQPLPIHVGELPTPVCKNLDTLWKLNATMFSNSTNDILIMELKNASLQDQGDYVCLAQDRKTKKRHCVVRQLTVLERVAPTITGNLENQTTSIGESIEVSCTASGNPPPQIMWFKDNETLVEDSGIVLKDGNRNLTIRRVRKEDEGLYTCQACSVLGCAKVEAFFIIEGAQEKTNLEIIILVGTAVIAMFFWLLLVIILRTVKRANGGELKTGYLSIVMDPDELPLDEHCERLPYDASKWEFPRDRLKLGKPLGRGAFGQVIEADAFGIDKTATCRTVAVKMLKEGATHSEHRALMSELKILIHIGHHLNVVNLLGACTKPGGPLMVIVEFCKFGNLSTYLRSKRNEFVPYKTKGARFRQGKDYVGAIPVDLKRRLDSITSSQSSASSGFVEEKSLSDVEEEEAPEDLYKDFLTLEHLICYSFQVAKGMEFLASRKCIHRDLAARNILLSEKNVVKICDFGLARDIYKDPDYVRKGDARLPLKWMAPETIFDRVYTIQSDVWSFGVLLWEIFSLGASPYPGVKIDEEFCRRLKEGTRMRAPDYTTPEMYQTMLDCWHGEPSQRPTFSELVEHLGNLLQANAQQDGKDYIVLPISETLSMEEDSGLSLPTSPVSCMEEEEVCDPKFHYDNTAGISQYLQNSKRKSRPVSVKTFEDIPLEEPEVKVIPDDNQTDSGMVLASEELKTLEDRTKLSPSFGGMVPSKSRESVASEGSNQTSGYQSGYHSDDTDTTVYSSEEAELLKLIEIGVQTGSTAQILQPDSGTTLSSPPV
Assay readout: Kd

Fill in: Vascular endothelial growth factor receptor 2 (Homo sapiens) Kd for CC(C)CN(C(=O)c1cccnc1)c1c2ccccc2c(=O)n2c1[nH]c1ccccc12 = ≥ 5 µM

---

# Target desc: Casein kinase I isoform gamma-2 (Homo sapiens)
# Sequence (P78368 whole entry, the tested form may be a part, canonical isoform): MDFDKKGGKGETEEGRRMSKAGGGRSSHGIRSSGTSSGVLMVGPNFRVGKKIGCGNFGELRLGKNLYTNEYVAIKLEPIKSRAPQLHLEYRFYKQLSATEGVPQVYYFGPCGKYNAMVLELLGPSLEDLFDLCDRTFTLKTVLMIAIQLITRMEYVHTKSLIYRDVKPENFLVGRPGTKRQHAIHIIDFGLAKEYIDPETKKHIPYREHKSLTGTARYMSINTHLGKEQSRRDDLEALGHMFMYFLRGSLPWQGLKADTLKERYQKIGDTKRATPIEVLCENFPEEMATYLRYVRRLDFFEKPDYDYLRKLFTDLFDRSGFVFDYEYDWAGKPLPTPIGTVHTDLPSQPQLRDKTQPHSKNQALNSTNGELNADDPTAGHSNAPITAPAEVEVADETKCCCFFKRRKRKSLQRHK
# Method notes: Binding affinity to full length human CSNK1G2 (M1 to K415 residues) expressed in bacterial expression system by KINOMEscan assay
pKd: −log10 of the molar value.
Assay readout: pKd

The molecule identified as CC(C)CN(C(=O)c1cccnc1)c1c2ccccc2c(=O)n2c1[nH]c1ccccc12 registered its pKd at ≤ 5.30

---

# Target desc: RAC-beta serine/threonine-protein kinase (Homo sapiens, UniProt P31751)
# Sequence (P31751 whole entry): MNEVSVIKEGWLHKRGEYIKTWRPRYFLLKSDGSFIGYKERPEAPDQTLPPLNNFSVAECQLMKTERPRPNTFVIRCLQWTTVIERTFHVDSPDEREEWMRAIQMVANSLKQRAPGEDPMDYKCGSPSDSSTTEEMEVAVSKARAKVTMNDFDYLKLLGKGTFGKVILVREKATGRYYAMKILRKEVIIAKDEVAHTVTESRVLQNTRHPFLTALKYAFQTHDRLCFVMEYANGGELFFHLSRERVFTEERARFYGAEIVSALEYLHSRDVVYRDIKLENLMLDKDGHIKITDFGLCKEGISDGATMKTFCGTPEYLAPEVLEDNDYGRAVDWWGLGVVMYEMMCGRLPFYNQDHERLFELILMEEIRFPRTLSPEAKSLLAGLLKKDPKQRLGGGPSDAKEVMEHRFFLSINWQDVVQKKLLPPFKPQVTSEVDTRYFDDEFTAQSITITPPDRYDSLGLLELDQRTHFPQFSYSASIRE
pKd: −log10 of the molar value.
Assay readout: pKd

pKd in this record for CC(C)CN(C(=O)c1cccnc1)c1c2ccccc2c(=O)n2c1[nH]c1ccccc12 : ≤ 5.30
